Reference for the values: patent US20110002929A1

TESTED TARGET: T1, human RANK-L (human, UniProt O14788 140-317, limits assumed)
T1 construct: Soluble protein, used coated, biotinylated or labelled in ELISA, AlphaScreen, FMAT and Biacore; also called hRANK-L; soluble human RANK-L
T1 sequence (looked up): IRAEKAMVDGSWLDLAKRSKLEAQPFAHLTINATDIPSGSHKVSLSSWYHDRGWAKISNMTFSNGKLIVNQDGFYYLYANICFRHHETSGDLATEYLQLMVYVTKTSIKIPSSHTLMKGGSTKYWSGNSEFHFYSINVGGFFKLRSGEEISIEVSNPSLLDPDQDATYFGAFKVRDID
TEST METHOD NOTES: AlphaScreen, biotin-hRANK-L / RANK-huFc beads
QUANTITY KIND: IC50 (nM)
Give bare numbers, in nM.

BINDER	MEASUREMENT UNIT	IC50
RANKL9 (VHH, not shown: c-myc and His6 tags) VHH: EVQLVESGGGLVQAGGSLRLTCAASGRTFRSYAMGWFRQAPGKEREFVAAINYSGGSTNYADSVKGRFTISRDNAKNTLYLQMNSLEPEDTAVYYCAAGSGYASLSYYSTERAYTYWGQGTQVTVSS	nM	0.341

## Task Requested read-out: IC50. Entry: RANKL13 (VHH, not shown: small tags and cut ends) VHH: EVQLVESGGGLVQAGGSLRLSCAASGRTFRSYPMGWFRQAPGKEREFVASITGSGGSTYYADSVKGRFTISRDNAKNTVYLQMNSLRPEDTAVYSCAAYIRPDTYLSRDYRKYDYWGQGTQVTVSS
## Result 0.147
